# assayed-system: 97-kinase panel
# measurement-protocol: 97-kinase panel screen
# condition: read-out: Kd, all tested kinases

| mol | Kd |
| --- | --- |
| CC(C)CN(C(=O)c1cccnc1)c1c2ccccc2c(=O)n2c1[nH]c1ccccc12 | > 5 µM |

These entries and their values trace back to paper PMC6718200.
